Measured IC50 (TRKB (Homo sapiens, UniProt Q16620))
Reported metric: IC50

{"Input smiles": "Cc1c(C#Cc2cnc3ccc(N4CCOCC4)nn23)cccc1C(=O)Nc1cc(CN2CCN(C)CC2)cc(C(F)(F)F)c1", "Reported metric": "IC50", "Reported result": "< 10 nM"}
{"Input smiles": "Cc1c(C#Cc2cnc3cccnn23)cccc1C(=O)Nc1cccc(C(F)(F)F)c1", "Reported metric": "IC50", "Reported result": "> 1000 nM"}
{"Input smiles": "Cc1c(C#Cc2cnc3ccc(N4CCN(C5COC5)CC4)nn23)cccc1C(=O)Nc1cc(Cl)cc(C(F)(F)F)c1", "Reported metric": "IC50", "Reported result": "< 10 nM"}
{"Input smiles": "Cc1c(C#Cc2cnc3cccnn23)cccc1C(=O)Nc1cc(Cl)cc(C(F)(F)F)c1", "Reported metric": "IC50", "Reported result": "100 to 1000 nM"}
{"Input smiles": "Cc1c(C#Cc2cnc3ccc(N4CCOCC4)nn23)cccc1C(=O)Nc1cc(Cl)cc(C(F)(F)F)c1", "Reported metric": "IC50", "Reported result": "10 to 100 nM"}
{"Input smiles": "Cc1c(C#Cc2cnc3ccc(N4CCC(N(C)C)CC4)nn23)cccc1C(=O)Nc1cccc(C(F)(F)F)c1", "Reported metric": "IC50", "Reported result": "< 10 nM"}
{"Input smiles": "Cc1c(C#Cc2cnc3ccc(NCCN4CCOCC4)nn23)cccc1C(=O)Nc1cc(Cl)cc(C(F)(F)F)c1", "Reported metric": "IC50", "Reported result": "10 to 100 nM"}
{"Input smiles": "Cc1c(C#Cc2cnc3ccc(N4CC[C@H](O)C4)nn23)cccc1C(=O)Nc1cccc(C(F)(F)F)c1", "Reported metric": "IC50", "Reported result": "10 to 100 nM"}
{"Input smiles": "Cc1c(C#Cc2cnc3ccc(N4CCOCC4)nn23)cccc1C(=O)Nc1cccc(C(F)(F)F)c1", "Reported metric": "IC50", "Reported result": "10 to 100 nM"}
{"Input smiles": "Cc1c(C#Cc2cnc3ccc(N4CCC(N(C)C)CC4)nn23)cccc1C(=O)Nc1cc(Cl)cc(C(F)(F)F)c1", "Reported metric": "IC50", "Reported result": "10 to 100 nM"}
{"Input smiles": "Cc1c(C#Cc2cnc3ccc(N(C)CCN(C)C)nn23)cccc1C(=O)Nc1cc(Cl)cc(C(F)(F)F)c1", "Reported metric": "IC50", "Reported result": "10 to 100 nM"}
